B1: SLC6A17 (parent)
chain: KAVEEELDAEDRPAWNSKLQYILA

- Variants of: B1
- Experimental protocol: protein stability index of a GFP-peptide fusion (GPS, HEK-293T) (PSI 1-6); higher = more stable;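 also: lentivirally expressed fusions sorted by FACS into six bins by GFP to DsRed ratio, PSI derived from sequencing read proportions per bin multiplied by bin number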
- Stated conditions: c terminus: a fixed tail appended
Endpoint label: protein stability index
Give your answer as a number; write no unit.

Recorded protein stability index, per entry:
Mutant designation	protein stability index
E4V	2.03
W15C	3.64
L7S	3.61
K18A	3.16
A14Q	2.4
A14M	2.1
K1V	3.64
P13W	2.88
L23K	3.89
N16I	2.05

**Query** Returns the measured protein stability index for the input variant. Input: D11A
**Result** 3.08

**Query** Returns the measured protein stability index for the input variant. Input: L19R
**Result** 3.63

**Query** Returns the measured protein stability index for the input variant. Input: D8V
**Result** 2.91

**Query** Returns the measured protein stability index for the input variant. Input: A2Q
**Result** 3

**Query** Returns the measured protein stability index for the input variant. Input: N16Y
**Result** 2.09

**Query** Returns the measured protein stability index for the input variant. Input: Q20R
**Result** 3.39
